target: Plasmodium falciparum lactate dehydrogenase (PfLDH) (Plasmodium falciparum, UniProt Q71T02 1-316); assay: EMSA; 4 C; EMSA: 25 nM strand, 0-2500 nM PfLDH (tetramer concentration in legends; text says Kd per subunit), 25 mM Tris-HCl pH 7.5, 100 mM NaCl, 20 mM imidazole, 25 C 1 h; settings: protein: recombinant; chain copies: 4; hairpin
Please provide measured Kd for the entries that follow.
Answers are plain numbers, in nM.

[
  {
    "binder": "aptamer-staple 11 Edge (ssDNA) DNA: CCTAATTTACGCTAACGAGCGTCTAATCAATACTGGGCGGTAGAACCATAGTGACCCAG",
    "unit.of.measure": "nM",
    "Kd": 596
  }
]

Then there is this binder:
Query: Quote Kd reported for aptamer-staple 87 Middle (ssDNA) DNA: TCATTACCCGACAATACTGGGCGGTAGAACCATAGTGACCCAGAACAACATATTTAGGC please.
Reply: 1720
